Test system: Recombinant human PARP1 protein (Homo sapiens)
Sequence (P09874 whole entry): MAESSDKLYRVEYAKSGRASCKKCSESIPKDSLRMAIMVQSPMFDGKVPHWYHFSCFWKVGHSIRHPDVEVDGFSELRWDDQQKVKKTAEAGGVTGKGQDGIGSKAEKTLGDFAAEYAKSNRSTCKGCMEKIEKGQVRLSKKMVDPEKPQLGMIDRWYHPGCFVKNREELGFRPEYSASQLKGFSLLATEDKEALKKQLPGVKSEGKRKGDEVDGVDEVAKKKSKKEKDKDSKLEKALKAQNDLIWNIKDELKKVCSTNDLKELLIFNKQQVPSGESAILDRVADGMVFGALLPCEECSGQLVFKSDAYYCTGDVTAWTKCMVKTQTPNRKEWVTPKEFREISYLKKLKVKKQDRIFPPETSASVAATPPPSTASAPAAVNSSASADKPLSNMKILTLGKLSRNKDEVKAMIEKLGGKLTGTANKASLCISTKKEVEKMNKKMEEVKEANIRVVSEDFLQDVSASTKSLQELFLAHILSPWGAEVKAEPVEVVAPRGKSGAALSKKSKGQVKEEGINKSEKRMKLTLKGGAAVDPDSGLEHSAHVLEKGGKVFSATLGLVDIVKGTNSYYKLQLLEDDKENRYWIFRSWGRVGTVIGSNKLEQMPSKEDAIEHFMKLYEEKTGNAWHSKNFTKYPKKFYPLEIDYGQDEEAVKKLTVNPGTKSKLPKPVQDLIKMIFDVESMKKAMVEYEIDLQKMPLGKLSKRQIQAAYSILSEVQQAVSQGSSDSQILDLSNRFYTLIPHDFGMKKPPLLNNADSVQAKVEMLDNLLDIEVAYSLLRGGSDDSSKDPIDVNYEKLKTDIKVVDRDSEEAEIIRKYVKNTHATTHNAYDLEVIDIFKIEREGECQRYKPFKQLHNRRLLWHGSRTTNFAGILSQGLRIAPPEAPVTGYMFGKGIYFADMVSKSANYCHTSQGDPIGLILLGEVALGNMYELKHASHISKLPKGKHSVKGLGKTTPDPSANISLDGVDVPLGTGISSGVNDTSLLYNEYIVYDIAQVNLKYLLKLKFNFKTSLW
Experimental details: biochemical
What pIC50 was measured for each of the following?
Numbers only, as −log10 of the molar value.

Known results for compounds:
>>> measurement("CNC(=O)c1ccc(N2CCN(Cc3ccc4c(c3)[nH]c(=O)c3cn(C)nc34)CC2)c(F)n1 [Compound 101]")
8.77
>>> measurement("CNC(=O)c1ccc(N2CCN(Cc3ccc4c(c3F)NC(=O)N3CCCN=C43)CC2)c(F)n1 [Compound 139]")
9.00
>>> measurement("CNC(=O)c1ccc(N2CCN(C(C)c3ccc4c(c3F)NC(=O)N3CC5(CC5)N=C43)CC2)c(F)n1 (stereo not drawn) [Compound 173]")
9.02

Working through the 4 compounds below one at a time, give pIC50 for each.
1. CNC(=O)c1ccc(N2CCN(Cc3ccc4c(c3F)NC(=O)N3CCCN=C43)CC2)c(C)n1 [Compound 140]
2. CNC(=O)c1ccc(N2CCN(Cc3ccc4c(c3)NC(=O)N3C[C@@H](C)N=C43)CC2)c(C)n1 [Compound 190]
3. CNC(=O)c1ccc(N2CCN(Cc3ccc4c(c3F)NC(=O)N3C4=NCCC3C)CC2)c(F)n1 (stereo not drawn) [Compound 150]
4. C[C@@H]1CN2C(=O)Nc3c(ccc(CN4CCN(c5ccc(C(=O)NCC(F)F)nc5Cl)CC4)c3F)C2=N1 [Compound 198]

8.82
9.47
7.75
9.30

----------
For each of the molecules below, state its AUC(0-t).
Experimental details: Preliminary pharmacokinetic test in mice
Type: in vivo
Condition info: male, ICR, iv; mouse plasma, i.v. 1 mg/kg
One number for each entry, in ng·h/mL.

>>> measurement("CNC(=O)c1ccc(N2CCN(Cc3ccc4c(c3F)NC(=O)N3CCCN=C43)CC2)c(Cl)n1 [Compound 141]")
3020

Lab note: each molecule below needs its AUC(0-t) filled in.
1. CNC(=O)c1ccc(N2CCN(Cc3ccc4c(c3F)NC(=O)N3C[C@@H](C)N=C43)CC2)c(F)n1 [Compound 132]
2. CNC(=O)c1ccc(N2CCN(Cc3ccc4c(c3F)NC(=O)N3CC(F)(F)CN=C43)CC2)c(C)n1 [Compound 160]

1. 6630
2. 10500

Hi there! I need AUC(0-t) for each item below, if you can.
1. CNC(=O)c1ccc(N2CCN(Cc3ccc4c(c3F)NC(=O)N3CC5(CC5)N=C43)CC2)c(Cl)n1 [Compound 158]
2. CNC(=O)c1ccc(N2CCN(Cc3ccc4c(c3F)NC(=O)N3CCCN=C43)CC2)c(F)n1 [Compound 139]
3. CNC(=O)c1ccc(N2CCN(Cc3ccc4c(c3F)NC(=O)N3C[C@@H](C)N=C43)CC2)c(Cl)n1 [Compound 154]

1. 3090
2. 2820
3. 7240

----------
Test system: Recombinant human PARP1 protein (Homo sapiens)
Experimental details: biochemical
What IC50 was measured for each of the following?
One number for each entry, in nM.

Answered cases to consult:
>>> measurement("CNC(=O)c1ccc(N2CCN(Cc3ccc4c([nH]c(=O)c5ccnn54)c3F)CC2)c(Cl)n1 [Compound 113]")
0.8
>>> measurement("CNC(=O)c1ccc(N2CCN(Cc3ccc4c(c3F)NC(=O)N3C[C@H](F)CN=C43)CC2)c(F)n1 [Compound 147]")
1
>>> measurement("CNC(=O)c1ccc(N2CCN(Cc3ccc4c(c3F)NC(=O)N3C[C@@H](C)N=C43)CC2)c(C)n1 [Compound 153]")
1.3
>>> measurement("CNC(=O)c1ccc(N2CCN(Cc3ccc4c(c3)NC(=O)N3CCCN=C43)CC2)c(C)n1 [Compound 192]")
1
>>> measurement("CNC(=O)c1ccc(N2CCN(Cc3ccc4c(c3F)NC(=O)N3C[C@H](F)CN=C43)CC2)c(C)n1 [Compound 145]")
0.6

Look up IC50 for the entries below, preserving their order.
1. CNC(=O)c1ccc(N2CCN(Cc3ccc4c(c3F)NC(=O)N3C[C@@H](C)N=C43)CC2)cn1 [Compound 193]
2. O=C(N[C@@H]1CCOC1)c1ccc(N2CCN(Cc3ccc4c([nH]c(=O)c5ccnn54)c3F)CC2)c(F)n1 [Compound 112]
3. CNC(=O)c1ccc(N2CCN(Cc3ccc4c([nH]c(=O)c5cscc54)c3F)CC2)c(F)n1 [Compound 80]

[1.7, 14.2, 0.85]

----------
Experimental details: Preliminary pharmacokinetic test in mice
Format: in vivo
Condition info: male, ICR, iv; mouse plasma, i.v. 1 mg/kg
Measured parameter: half-life (h)
One number for each entry, in h.

Consider the reported half-life for these compounds:
>>> measurement("CNC(=O)c1ccc(N2CCN(Cc3ccc4c(c3F)NC(=O)N3C[C@@H](C)N=C43)CC2)c(Cl)n1")
1.1
>>> measurement("CNC(=O)c1ccc(N2CCN(Cc3ccc4c(c3F)NC(=O)N3CCCN=C43)CC2)c(F)n1")
3.1

Hello, I would appreciate it if you could give half-life for each entry below.
1. CNC(=O)c1ccc(N2CCN(Cc3ccc4c(c3F)NC(=O)N3CCCN=C43)CC2)c(Cl)n1
2. CNC(=O)c1ccc(N2CCN(Cc3ccc4c(c3F)NC(=O)N3CC5(CC5)N=C43)CC2)c(Cl)n1
3. CNC(=O)c1ccc(N2CCN(Cc3ccc4c(c3F)NC(=O)N3CC(F)(F)CN=C43)CC2)c(C)n1
4. CNC(=O)c1ccc(N2CCN(Cc3ccc4c(c3F)NC(=O)N3C[C@@H](C)N=C43)CC2)c(F)n1

1: 1.2; 2: 0.8; 3: 0.86; 4: 3

----------
Please respond with reported PARP1/2 Fold selectivity for every item in the list.
Test system: Recombinant human PARP1 protein (Homo sapiens)
Experimental details: PARP1 enzymatic inhibitory activity, histone substrate, chemiluminescent ELISA
Condition info: PARP2 IC50 over PARP1 IC50

Sample records with PARP1/2 Fold selectivity:
>>> measurement("CNC(=O)c1ccc(N2CCN(Cc3ccc4c(c3F)NC(=O)N3CC(C)(C)N=C43)CC2)c(F)n1")
785
>>> measurement("CNC(=O)c1ccc(N2CCN(Cc3ccc4c(c3F)NC(=O)N3C[C@@H](C)N=C43)CC2)c(Cl)n1")
706.9
>>> measurement("CNC(=O)c1ccc(N2CCN(Cc3ccc4c(c3F)NC(=O)N3C[C@@H](F)CN=C43)CC2)c(F)n1")
557.9

# batch: return PARP1/2 Fold selectivity for each of the 4 molecules below
1. N#Cc1ccc(N2CCN(Cc3ccc4c(c3F)NC(=O)N3CCCN=C43)CC2)nc1
2. CNC(=O)c1ccc(N2CCN(Cc3ccc4c(c3F)NC(=O)N3CC(F)(F)CN=C43)CC2)c(Cl)n1
3. CNC(=O)c1ccc(N2CCN(C(C)c3ccc4c(c3)[nH]c(=O)c3cccn34)CC2)c(F)n1 (stereo not shown)
4. CNC(=O)c1ccc(N2CCN(Cc3ccc4c(c3Cl)NC(=O)N3CCN=C43)CC2)c(F)n1

1: 466.3; 2: 207.4; 3: 115.3; 4: 1313.2

----------
Test system: Recombinant human PARP1 protein (Homo sapiens)
Experimental details: PARP1 enzymatic inhibitory activity, histone substrate, chemiluminescent ELISA
Condition info: PARP2 IC50 over PARP1 IC50
So I've got a bunch of molecules here, and I need their PARP1/2 Fold selectivity values.

Observe how each entry below is paired with its result.
>>> measurement("CNC(=O)c1ccc(N2CCN(Cc3ccc4c(c3)[nH]c(=O)c3nc(C)oc34)CC2)c(F)n1")
521.6
>>> measurement("CCNC(=O)c1ccc(N2CCN(Cc3ccc4c(c3F)NC(=O)N3C[C@@H](C)N=C43)CC2)c(C)n1")
426.4
>>> measurement("CNC(=O)c1ccc(N2CCN(Cc3ccc4c(c3F)NC(=O)N3C[C@H](F)CN=C43)CC2)c(F)n1")
277.7

Quick check: PARP1/2 Fold selectivity of CNC(=O)c1ccc(N2CCN(Cc3ccc4c(c3F)NC(=O)N3CC(C)CN=C43)CC2)c(F)n1 (stereo not shown) ?
>1923

----------
System: MDR1
Experimental details: MDR1-MDCK II cell model of bidirectional permeability
Assay type: in vitro ADME
Condition info: dog, apical-to-basolateral, 2 µM, 2.5 h
Description: 2 µM of the test compound was added to the wells at the apical side or the basolateral side of the monolayer of cells and incubated for 2.5 h at 37.0°C in a 5.0% CO2 incubator. Cell monolayer integrity was determined by Lucifer yellowrejection assay. The buffer was removed from the apical side and basolateral side, and the concentration of the subject compounds was determined using LC-MS/MS. […]
Measured parameter: Papp A→B at 2.5 h, 2 µM
The answer should read as a number with its unit following.

Some solved cases for reference:
>>> measurement("CNC(=O)c1ccc(N2CCN(Cc3ccc4c(c3F)NC(=O)N3CC5(CC5)N=C43)CC2)c(Cl)n1")
"14.7 ×10⁻⁶ cm/s"
>>> measurement("CNC(=O)c1ccc(N2CCN(Cc3ccc4c(c3F)NC(=O)N3CC(F)(F)CN=C43)CC2)c(C)n1")
"14.3 ×10⁻⁶ cm/s"

Go through the items and report each one's Papp A→B at 2.5 h, 2 µM.
1. CNC(=O)c1ccc(N2CCN(Cc3ccc4c(c3F)NC(=O)N3CC5(CC5)N=C43)CC2)c(F)n1
2. CNC(=O)c1ccc(N2CCN(Cc3ccc4c(c3F)NC(=O)N3C[C@@H](C)N=C43)CC2)c(Cl)n1
3. CNC(=O)c1ccc(N2CCN(Cc3ccc4c(c3F)NC(=O)N3CCCN=C43)CC2)c(F)n1
4. CNC(=O)c1ccc(N2CCN(Cc3ccc4c(c3F)NC(=O)N3CC5(CC5)N=C43)CC2)c(C)n1
5. CNC(=O)c1ccc(N2CCN(Cc3ccc4c(c3F)NC(=O)N3C4=NC[C@@H]3C)CC2)c(Cl)n1

["14.7 ×10⁻⁶ cm/s", "13.9 ×10⁻⁶ cm/s", "16.7 ×10⁻⁶ cm/s", "15.1 ×10⁻⁶ cm/s", "16.3 ×10⁻⁶ cm/s"]
